Molecular target: sodium channel isoforms of interest stably expressed in Human Embryonic Kidney Cells (voltage-gated sodium channel, particularly NaV1.1) (Homo sapiens, UniProt P35498)
Experiment: automated planar patch clamp assay of sodium channel gating (area under the sodium current trace)
Details: HEK cells, voltage step from −120 mV to 0 mV, increasing concentrations
readout: EC50

{"molecule": "CC(C)CC1CN=C(c2c(-c3ccccc3F)ccnc2N2CCCC2)N1 (stereo not drawn)", "result": "1 to 10 µM"}
{"molecule": "c1ccc(-c2ccnc(N3CCCC3)c2-c2nc3c([nH]2)COCC3)cc1", "result": "1 to 10 µM"}
{"molecule": "F[C@H]1CCN(c2nccc(-c3ccccc3)c2-c2cc(-c3cccnc3)[nH]n2)C1", "result": "10 to 50 µM"}
{"molecule": "CC1CN=C(c2c(-c3ccccc3)ccnc2N2CC[C@H](F)C2)N1 (stereo partly drawn)", "result": "1 to 10 µM"}
{"molecule": "F[C@H]1CCN(c2nccc(-c3ccccc3)c2-c2nc3ccccc3[nH]2)C1", "result": "1 to 10 µM"}
{"molecule": "Cc1ccccc1-c1ccnc(N2CCOCC2)c1-c1nc2ccccc2[nH]1", "result": "10 to 50 µM"}
{"molecule": "Fc1ccccc1-c1ccnc(N2CCCC2)c1-c1nc2ccccc2[nH]1", "result": "1 to 10 µM"}
{"molecule": "Fc1ccccc1-c1ccnc(N2CCC(F)(F)C2)c1-c1nc2c([nH]1)COCC2", "result": "< 1 µM"}
{"molecule": "Cc1nc(-c2c(-c3ccccc3)ccnc2N2CC[C@H](F)C2)[nH]c1C(F)(F)F", "result": "10 to 50 µM"}

====

Molecular target: sodium channel isoforms of interest stably expressed in Human Embryonic Kidney Cells (voltage-gated sodium channel, particularly NaV1.1) (Homo sapiens)
Experiment: automated planar patch clamp assay of sodium channel gating (area under the sodium current trace)
Conditions: HEK cells, voltage step from −120 mV to 0 mV, increasing concentrations
Source text: A typical assay described in Crestey, F. et al., ACS Chem Neurosci (2015), Vol. 6, pp. 1302-1308, AA43279 (Frederiksen, K. et al., Eur J Neurosci (2017), Vol. 46, pp. 1887-1896) and Lu AE98134 (von Schoubyea, N. L. et al., Neurosci Lett (2018), Vol. 662, pp. 29-35) employs the use of automated planar patch clamp techniques to study the effects of the chemical agent on the gating of sodium channels. […]
Reported EC50 values follow for various compounds
readout: EC50

{"line notation": "F[C@H]1CCN(c2nccc(-c3ccccc3)c2-c2nnn[nH]2)C1", "result": "< 1 µM"}
{"line notation": "Fc1ccc(F)c(-c2ccnc(N3CC[C@H](F)C3)c2-c2nc3cnc(Cl)cc3[nH]2)c1", "result": "< 1 µM"}
{"line notation": "Cn1cc2nc(-c3c(-c4ccccc4F)ccnc3N3CCC(F)(F)C3)[nH]c2n1", "result": "1 to 10 µM"}
{"line notation": "CN1CCc2nc(-c3c(-c4ccccc4)ccnc3N3CC[C@H](F)C3)[nH]c2C1", "result": "10 to 50 µM"}

====

Molecular target: sodium channel isoforms of interest stably expressed in Human Embryonic Kidney Cells (voltage-gated sodium channel, particularly NaV1.1) (Homo sapiens, UniProt P35498)
Experiment: automated planar patch clamp assay of sodium channel gating (area under the sodium current trace)
Conditions: HEK cells, voltage step from −120 mV to 0 mV, increasing concentrations
pEC50: −log10 of the molar value.
Collected pEC50 values appear next to each entry.

{"molecule": "FC1(F)CCCN(c2nccc(-c3ccccc3)c2-c2nc3c([nH]2)COCC3)C1", "pEC50": "4.30 to 5.00"}
{"molecule": "OC1Cc2nc(-c3c(-c4ccccc4)ccnc3N3CCC(F)(F)C3)[nH]c2C1", "pEC50": "5.00 to 6.00"}
{"molecule": "Fc1ccccc1-c1ccnc(N2CCCC2)c1-c1nc2ncccc2[nH]1", "pEC50": "5.00 to 6.00"}
{"molecule": "F[C@H]1CCN(c2nccc(-c3ccccc3)c2-c2nc3ccccc3o2)C1", "pEC50": "≤ 4.30"}
{"molecule": "Fc1ccccc1-c1ccnc(N2CCC(F)(F)C2)c1-c1nc2ccncc2[nH]1", "pEC50": "> 6.00"}
{"molecule": "Cc1ccccc1-c1ccnc(N2CCCC2)c1-c1nc2ccccc2[nH]1", "pEC50": "5.00 to 6.00"}
{"molecule": "COC1CCc2nc(-c3c(-c4ccccc4)ccnc3N3CC[C@H](F)C3)[nH]c2C1 (stereo partly shown)", "pEC50": "5.00 to 6.00"}
{"molecule": "c1ccc(-c2ccnc(OC3CCC3)c2-c2nc3c([nH]2)COCC3)cc1", "pEC50": "≤ 4.30"}
{"molecule": "CC1(C)OCCc2nc(-c3c(-c4ccccc4)ccnc3N3CCC(F)(F)C3)[nH]c21", "pEC50": "5.00 to 6.00"}
{"molecule": "F[C@H]1CCN(c2nccc(-c3ccccc3)c2-c2nc3c([nH]2)CNCC3)C1", "pEC50": "≤ 4.30"}
{"molecule": "Fc1cccnc1-c1ccnc(N2CCCC2)c1-c1nc2ccccc2[nH]1", "pEC50": "4.30 to 5.00"}
{"molecule": "CC(C)(C)c1ccc2nc(-c3c(-c4ccccc4)ncnc3N3CCCC3)[nH]c2c1", "pEC50": "5.00 to 6.00"}
{"molecule": "FC1(F)CCN(c2nccc(-c3ccccc3)c2-c2nc3c([nH]2)COCC3)C1", "pEC50": "> 6.00"}
{"molecule": "Cc1[nH]c(-c2c(-c3ccccc3)ccnc2N2CCC(F)(F)C2)nc1-c1ccccc1", "pEC50": "5.00 to 6.00"}
{"molecule": "F[C@H]1CCN(c2nccc(-c3ccccc3)c2-c2nc(-c3ccccc3)n[nH]2)C1", "pEC50": "5.00 to 6.00"}
{"molecule": "CC(C)(C)OC(=O)N1CCc2nc(-c3c(-c4ccccc4)ccnc3N3CCC(F)(F)C3)[nH]c2C1", "pEC50": "> 6.00"}
{"molecule": "CC(C)N1CCc2nc(-c3c(-c4ccccc4)ccnc3N3CC[C@H](F)C3)[nH]c2C1", "pEC50": "≤ 4.30"}
{"molecule": "N#CC1CCN(c2nccc(-c3ccccc3)c2-c2nc3c([nH]2)COCC3)C1 (stereo not shown)", "pEC50": "5.00 to 6.00"}
{"molecule": "F[C@H]1CCN(c2nccc(-c3ccccc3)c2C2=N[C@@H]3CCCC[C@H]3N2)C1", "pEC50": "5.00 to 6.00"}
{"molecule": "c1ccc(-c2ccnc(N3CCOCC3)c2-c2nc3c([nH]2)COCC3)cc1", "pEC50": "4.30 to 5.00"}
{"molecule": "c1ccc(-c2ccnc(N3CCOCC3)c2C2=N[C@@H]3CCCC[C@H]3N2)cc1", "pEC50": "5.00 to 6.00"}
{"molecule": "Fc1cccc(-c2ccnc(N3CCC(F)(F)C3)c2-c2nc3c([nH]2)CCOC3)c1F", "pEC50": "> 6.00"}
{"molecule": "Cc1[nH]c(-c2c(-c3ccccc3)ccnc2N2CC[C@H](F)C2)nc1Br", "pEC50": "5.00 to 6.00"}
{"molecule": "F[C@@H]1CN(c2nccc(-c3ccccc3)c2-c2nc3c([nH]2)COCC3)C[C@@H]1F", "pEC50": "5.00 to 6.00"}
{"molecule": "F[C@H]1CCN(c2nccc(-c3ccccc3)c2-c2nc3c([nH]2)CN(C2COC2)CC3)C1", "pEC50": "4.30 to 5.00"}
{"molecule": "Nc1nnc(-c2c(-c3ccccc3F)ccnc2N2CCCC2)o1", "pEC50": "≤ 4.30"}
{"molecule": "CC(C)(C)c1nc(-c2c(-c3ccccc3)ccnc2N2CCC(F)(F)C2)no1", "pEC50": "5.00 to 6.00"}
{"molecule": "CC(C)c1ccc(-c2cc(-c3c(-c4ccccc4)ccnc3N3CC[C@H](F)C3)n[nH]2)cc1", "pEC50": "4.30 to 5.00"}
{"molecule": "Fc1ccc(F)c(-c2ccnc(N3CC[C@H](F)C3)c2-c2nc3c([nH]2)COCC3)c1", "pEC50": "5.00 to 6.00"}
{"molecule": "F[C@H]1CCN(c2nccc(-c3ccccc3)c2-c2nc3c([nH]2)CN(Cc2ccccc2)CC3)C1", "pEC50": "> 6.00"}
{"molecule": "FC1(F)CC2(CN(c3nccc(-c4ccccc4)c3-c3nc4c([nH]3)COCC4)C2)C1", "pEC50": "4.30 to 5.00"}
{"molecule": "CC1(C)Cc2nc(-c3c(-c4ccccc4)ccnc3N3CCC(F)(F)C3)[nH]c2CO1", "pEC50": "> 6.00"}
{"molecule": "Fc1ccccc1-c1ccnc(N2CC[C@H](F)C2)c1-c1nnco1", "pEC50": "≤ 4.30"}
{"molecule": "FC1(F)CN(c2nccc(-c3ccccc3)c2-c2nc3c([nH]2)COCC3)C1", "pEC50": "≤ 4.30"}
